Measured values drawn from patent US20250320312A1 for this set.

Listed next: entries and their corresponding OD450.
# TEST TARGET: Peptide 5: Biotin-…-[Tyr(PC)]-acid
# Sequence (peptide, as listed by the source): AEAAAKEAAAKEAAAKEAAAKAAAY
# ASSAY REMARKS: scFv ELISA

{"BINDER": "PcOxP_DB01_E06 (scFv, V domains shown, scFv in periplasmic extract) VH: EVQLLESGGGLVQPGGSLRLSCAASGFTFSDQYMEWVRQAPGKGLEWVAASRNKANDYTTEYADSVKGRFTISRDNSKNTLYLQMNSLRAEDTAVYYCARDYYGSSYWYFDLWGQGTLVTVSS VL: DIQMTQSPSSLSASVGDRVTITCTASESLYSSKHKVHYVAWYQQKPGKAPKLLIYGASNRYIGVPSRFSGSGSGTDFTLTISSLQPEDFATYYCAQFYYYPLTFGGGTKVEIK", "OD450": "1.05 OD450"}
{"BINDER": "PcOxP_DB02_F09 (scFv, V domains shown, scFv in periplasmic extract) VH: EVQLLESGGGLVQPGGSLRLSCAASGFQFSDFYMEWVRQAPGKGLEWVAASRNKGNSYTTAYADSVKGRFTISRDNSKNTLYLQMNSLRAEDTAVYYCARDYYGSSYWYFDVWGQGTLVTVSS VL: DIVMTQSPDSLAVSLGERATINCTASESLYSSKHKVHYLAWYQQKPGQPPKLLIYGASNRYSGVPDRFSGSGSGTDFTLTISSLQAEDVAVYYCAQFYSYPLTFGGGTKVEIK", "OD450": "0.93 OD450"}
